Data origin: PubChem BioAssay (NCATS)

test: High-throughput drug toxicity screening in the BPDCN cell line Cal-1 (AID 1224825); details: Cal-1 BPDCN cell viability, qHTS; at 45.8 µM (top of the series) unless noted;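 further: cells exposed to compounds for 48 h; 100% = DMSO and 0% = bortezomib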
Below, each of the compounds is paired with its reported viability (% of control) value.

>  <Compound>
S=c1nc[nH]c2nc[nH]c12

>  <viability (% of control)>
89.6%

$$$$
>  <Compound>
O=C(O)c1cccnc1Nc1cccc(C(F)(F)F)c1

>  <viability (% of control)>
88.7%

$$$$
>  <Compound>
Cc1cccc(C)c1OCC(=O)N[C@@H](Cc1ccccc1)[C@@H](O)C[C@H](Cc1ccccc1)NC(=O)[C@H](C(C)C)N1CCCNC1=O

>  <viability (% of control)>
91.4%

$$$$
>  <Compound>
CNC[C@@H](O)[C@@H](O)[C@H](O)[C@H](O)CO

>  <viability (% of control)>
115%

$$$$
>  <Compound>
CCOc1cc(CC(=O)N[C@@H](CC(C)C)c2ccccc2N2CCCCC2)ccc1C(=O)O

>  <viability (% of control)>
27.5%

$$$$
>  <Compound>
NC(=NCc1ccccc1)NC(=O)c1nc(Cl)c(N)nc1N

>  <viability (% of control)>
133%

$$$$
>  <Compound>
CCCc1cc(=O)[nH]c(=S)[nH]1

>  <viability (% of control)>
14.9%

$$$$
>  <Compound>
Nc1ccn([C@@H]2O[C@H](CO)[C@@H](O)C2O)c(=O)n1 (stereo not given in full)

>  <viability (% of control)>
92.2%

$$$$
>  <Compound>
Clc1ccc(C(Cn2ccnc2)OCc2ccc(Sc3ccccc3)cc2)c(Cl)c1 (stereo not given)

>  <viability (% of control)>
100%

$$$$
>  <Compound>
N=C(N=C(N)N)N1CCOCC1

>  <viability (% of control)>
127%

$$$$
